experiment: Pharmacokinetic behavior in mice (plasma concentration by LC-MS/MS); format: in vivo; conditions: male ICR mice, Intravenous injection (1 mg/kg)
CL reference
Output spec: scalar in mL/min/kg, unitless text.

**Query** Item CC(C)(O)c1cc2nn([C@H]3CC[C@H](CCN4CCN5c6ccc(C7CCC(=O)NC7=O)cc6OC[C@H]5C4)CC3)cc2cc1NC(=O)c1cccc(C(F)(F)F)n1 (stereo partly shown) [Compound 1-b] has what recorded CL?
**Result** 1.0

**Query** Item CC(C)(O)c1cc2nn([C@H]3CC[C@H](CCN4CCN5c6ccc(C7CCC(=O)NC7=O)cc6OC[C@@H]5C4)CC3)cc2cc1NC(=O)c1cccc(C(F)(F)F)n1 (stereo partly shown) [Compound 1-a] has what recorded CL?
**Result** 1.25

**Query** Item COc1cc2nn([C@H]3CC[C@H](CCN4CCC5(CC4)OCc4cc(C6CCC(=O)NC6=O)ccc45)CC3)cc2cc1NC(=O)c1cccc(C(F)(F)F)n1 (stereo partly shown) [Compound 46] has what recorded CL?
**Result** 6.80

**Query** Item CC(C)(O)c1cc2nn([C@H]3CC[C@H](CCN4CCN5c6ccc(C7CCC(=O)NC7=O)cc6OCC5C4)CC3)cc2cc1NC(=O)c1cccc(C(F)(F)F)n1 (stereo partly shown) [Compound 1] has what recorded CL?
**Result** 0.905

* * *

assay: Pharmacokinetic behavior in mice (plasma concentration by LC-MS/MS); type: in vivo; settings: mouse, plasma; male ICR mice, Intravenous injection (1 mg/kg)
Property: clearance (mL/min/kg)
Output spec: scalar in mL/min/kg, unitless text.

{"columns": ["Molecule", "clearance / mL/min/kg"],
 "data": [
  ["CC(C)(O)c1cc2nn([C@H]3CC[C@H](CCN4CCC5(CC4)OC(=O)c4cc(C6CCC(=O)NC6=O)ccc45)CC3)cc2cc1NC(=O)c1cccc(C(F)(F)F)n1 (stereo partly drawn) [Compound 93]", 2.98],
  ["COc1cc2nn([C@H]3CC[C@H](CCN4CCC5(CC4)OCc4cc(C6CCC(=O)NC6=O)ccc45)CC3)cc2cc1C(=O)Nc1cccc(C(F)(F)F)n1 (stereo partly drawn) [Compound 96]", 4.59]
]}

# evaluate next
**Query** Item CC(C)(O)c1cc2nn([C@H]3CC[C@H](CCN4CCN5c6c(F)cc(C7CCC(=O)NC7=O)cc6OCC5C4)CC3)cc2cc1NC(=O)c1cccc(C(F)(F)F)n1 (stereo partly drawn) [Compound 4] has what recorded clearance?
**Result** 1.27

* * *

Biological target: IRAK4-HiBiT fusion protein (Homo sapiens, UniProt Q9NWZ3)
Construct: K562 from ATCC
Sequence (Q9NWZ3 1-460): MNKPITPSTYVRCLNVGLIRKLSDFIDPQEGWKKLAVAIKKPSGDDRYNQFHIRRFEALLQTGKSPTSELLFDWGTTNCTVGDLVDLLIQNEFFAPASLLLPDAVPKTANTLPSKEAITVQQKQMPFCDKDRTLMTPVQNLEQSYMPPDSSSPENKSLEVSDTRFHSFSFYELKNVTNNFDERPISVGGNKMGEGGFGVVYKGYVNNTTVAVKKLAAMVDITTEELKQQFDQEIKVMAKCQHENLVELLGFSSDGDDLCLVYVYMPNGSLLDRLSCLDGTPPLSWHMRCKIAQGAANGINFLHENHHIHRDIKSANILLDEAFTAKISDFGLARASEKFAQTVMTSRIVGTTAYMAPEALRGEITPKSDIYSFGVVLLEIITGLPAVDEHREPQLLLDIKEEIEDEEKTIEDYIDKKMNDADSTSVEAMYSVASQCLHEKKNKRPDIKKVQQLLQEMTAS
Assay: Detection of HiBiT-IRAK4 proteolysis levels in K562 IRAK4-HiBiT cells (Nano-Glo HiBiT Lytic assay)
Assay type: cell-based
Settings: 6 h incubation, read-out: Relative DC50
log10 DC50 reference
Hi team, quick reminder: these entries are log10 of DC50 (nM).

{"columns": ["Compound", "log10 DC50"],
 "data": [
  ["CC(C)(O)c1cc2nn([C@H]3CC[C@H](CN4CCC5(CC4)OCc4cc(C6CCC(=O)NC6=O)ccc45)CC3)cc2cc1NC(=O)c1cccc(C(F)(F)F)n1 (some centres unmarked)", 0.60],
  ["CC(C)(O)c1cc2nn([C@H]3CC[C@H](CCN4CC5(CCN6c7ccc(C8CCC(=O)NC8=O)cc7NC6C5)C4)CC3)cc2cc1NC(=O)c1cccc(C(F)(F)F)n1 (some centres unmarked)", 1.91],
  ["COc1cc2nn([C@H]3CC[C@H](CCN4CCC5(CC4)OCc4cc(C6CCC(=O)NC6=O)ccc45)CC3)cc2cc1C(=O)Nc1cccc(C(F)(F)F)n1 (some centres unmarked)", -0.36]
]}

**Query** Item CC(C)(O)c1cc2nn([C@H]3CC[C@H](CCN4CCN5c6ccc(C7CCC(=O)NC7=O)cc6OCC5C4)CC3)cc2cc1NC(=O)c1ccc2cc(C#N)cnn12 (some centres unmarked) has what recorded log10 DC50?
**Result** 0.64

**Query** Item CC(C)(O)c1cc2nn([C@H]3CC[C@H](CCN4CCN5c6ccc(C7(C)CCC(=O)NC7=O)cc6OCC5C4)CC3)cc2cc1NC(=O)c1ccc2cc(C#N)cnn12 (some centres unmarked) has what recorded log10 DC50?
**Result** 1.09
